# Test system: BEL-7404 tumor cell line
# protocol: In vitro antitumor activity of compound against 7404 cell line (human liver carcinoma cells)
# Type: functional, cell-based
# condition-label: Homo sapiens, BEL-7404
measured-metric: pIC50
Numbers only, as −log10 of the molar value.

Example cases with answers are listed next.
{"columns": ["molecule", "pIC50"],
 "data": [
  ["COc1ccc(C(=O)OC2C(OC3C(O)COC(O[C@H]4CC5C6CC=C7C[C@@H](O)CC[C@]7(C)C6CC([C@H](C)C(O)CCC(C)C)[C@]5(C)[C@@H]4O)C3OC(C)=O)OCC(O)C2O)cc1 (stereo not given in full)", 5.73],
  ["COc1ccc(C(=O)OC2C(OC3C(O)COC(O[C@H]4CC5C6CC=C7C[C@@H](O)CC[C@]7(C)C6CC([C@H](C)C(C)=O)[C@]5(C)[C@@H]4O)C3OC(C)=O)OCC(O)C2O)cc1 (stereo not given in full)", 5.54]
]}

Each molecule below has a reported value. Please supply its pIC50.
1. COc1ccc(C(=O)OC2C(OC3C(O)COC(O[C@H]4CC5C6CC=C7C[C@@H](O)CC[C@]7(C)C6CC([C@H](C)CCCC(C)C)[C@]5(C)[C@@H]4O)C3OC(C)=O)OCC(O)C2O)cc1 (stereo not given in full)
2. COc1ccc(C(=O)OC2C(OC3C(O)COC(O[C@H]4CC5C6CC=C7C[C@@H](O)CC[C@]7(C)C6CC([C@H](C)C(=O)CCC(C)C)[C@]5(C)[C@@H]4O)C3OC(C)=O)OCC(O)C2O)cc1 (stereo not given in full)

1: 7.20; 2: 7.00

State the recorded pIC50 for this entry: CCCC(=O)[C@@H](C)C1CC2C(CC=C3C[C@@H](O)CC[C@@]32C)C2C[C@H](OC3OCC(O)C(OC4OCC(O)C(O)C4OC(=O)c4ccc(OC)cc4)C3OC(C)=O)[C@@H](O)[C@]21C (stereo not given in full)
7.49
